System: Staphylococcus aureus
procedureText: microbe, parasite or virus in culture
assaySetup: isolate d20A1
Description: Antibacterial activity against MBX-1090-resistant Staphylococcus aureus isolate d20A1 after 16 to 20 hrs by broth microdilution method
Numbered stars: 1 amine (or outer) side, 2 acyl side, 3 side chain; on linkers, the order of the positions; unused ones are H or OH. Bridge positions count the residues as written; N and C are the ends. Square brackets hold non-standard residues; d marks the D form. Peptide text beside a SMILES is read from it. I, II: the chains in the order shown. Actinocin(1to9) = Cc1c2oc3c(C)ccc(C(=O)[*:2])c3nc-2c(C(=O)[*:1])c(N)c1=O; NMeV = CN[C@H](C(=O)O)C(C)C; Sar = CNCC(=O)O
In plain terms, low MIC, meaning strictly below 0.5 µg/mL, gives 1 (yes), and everything else gives 0 (no).

Q: is_below(MIC, 0.5 µg/mL) for CCN1CCN(c2cc3c(cc2F)c(=O)c(C(=O)O)cn3C2CC2)CC1 [ENROFLOXACIN] ?
A: 1 (yes)

Q: is_below(MIC, 0.5 µg/mL) for Cn1cc(NC(=O)c2cc(NC(=O)c3cc(NC=O)cn3C)cn2C)cc1C(=O)NCCC(=N)N [STALLIMYCIN] ?
A: 0 (no)

Q: is_below(MIC, 0.5 µg/mL) for CC(=O)O[C@H]1C[C@@]2(C)[C@@H](C[C@@H](O)[C@H]3[C@@]4(C)CC[C@@H](O)[C@@H](C)[C@@H]4CC[C@@]32C)/C1=C(\CCC=C(C)C)C(=O)O [FUSIDIC ACID] ?
A: 1 (yes)

Q: is_below(MIC, 0.5 µg/mL) for O=C(O)c1cn(C2CC2)c2cc(N3CCNCC3)c(F)cc2c1=O [CIPROFLOXACIN] ?
A: 1 (yes)

Q: is_below(MIC, 0.5 µg/mL) for CCn1cc(C(=O)O)c(=O)c2ccc(C)nc21 [NALIDIXIC ACID] ?
A: 0 (no)

Q: is_below(MIC, 0.5 µg/mL) for COc1cc(Cc2cnc(N)nc2N)cc(OC)c1OC [TRIMETHOPRIM] ?
A: 0 (no)

Q: is_below(MIC, 0.5 µg/mL) for CN[C@@H]1[C@H](O[C@H]2[C@H](O[C@H]3[C@H](O)[C@@H](O)[C@H](N=C(N)N)[C@@H](O)[C@@H]3N=C(N)N)O[C@@H](C)[C@]2(O)C=O)O[C@@H](CO)[C@H](O)[C@H]1O [STREPTOMYCIN] ?
A: 0 (no)

Q: is_below(MIC, 0.5 µg/mL) for Cc1c2oc3c(C)ccc(C(=O)N[C@@H]4C(=O)N[C@H](C(C)C)C(=O)N5CCC[C@H]5C(=O)N(C)CC(=O)N(C)[C@@H](C(C)C)C(=O)O[C@@H]4C)c3nc-2c(C(=O)N[C@@H]2C(=O)N[C@H](C(C)C)C(=O)N3CCC[C@H]3C(=O)N(C)CC(=O)N(C)[C@@H](C(C)C)C(=O)O[C@@H]2C)c(N)c1=O [DACTINOMYCIN] (I: T[dV]P[Sar][NMeV] / II: T[dV]P[Sar][NMeV]; ester I:1-I:C, II:1-II:C; linker I:N-II:N via Actinocin(1to9)) ?
A: 0 (no)

Q: is_below(MIC, 0.5 µg/mL) for C(=C\c1cc2ccc(C3=NCCN3)cc2[nH]1)/c1cc2ccc(C3=NCCN3)cc2[nH]1 ?
A: 0 (no)

Q: is_below(MIC, 0.5 µg/mL) for NC[C@H]1O[C@H](O[C@H]2[C@H](O)[C@@H](O[C@H]3O[C@H](CO)[C@@H](O)[C@H](N)[C@H]3O)[C@H](N)C[C@@H]2N)[C@H](O)[C@@H](O)[C@@H]1O [KANAMYCIN] ?
A: 0 (no)

Q: is_below(MIC, 0.5 µg/mL) for CO[C@@H]1[C@@H](OC(N)=O)[C@@H](O)[C@H](Oc2ccc3c(O)c(NC(=O)c4ccc(O)c(CC=C(C)C)c4)c(=O)oc3c2C)OC1(C)C [NOVOBIOCIN] ?
A: 1 (yes)

Cited source: ChEMBL document CHEMBL1157072
